Test system: LXRb homodimer (NR concentration 270 nM)
Assay: PBM binding z-score (relative to random genomic background probes); higher = stronger binding; sequences stand for … in GC…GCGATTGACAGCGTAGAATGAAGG
Kind request: treat 0.05 as inclusive, so PBM binding z-score at 0.05 or higher is Met, anything lower is Not met.

Request: Hi, just wondering whether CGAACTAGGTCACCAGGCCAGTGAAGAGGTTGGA shows PBM binding z-score of 0.05 or higher.
Response: Not met

Request: Is PBM binding z-score for CGTCCAAGGTCAAGGGCAGTGAAAGAGACTCGAA at or above 0.05?
Response: Not met

Request: Determine whether this sequence has PBM binding z-score no lower than 0.05: CGTCAAAGTTCATGGTAACGTAACAGAAAGCAGC
Response: Met

Request: Is it the case that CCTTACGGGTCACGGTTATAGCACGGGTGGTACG has PBM binding z-score reaching or exceeding 0.05?
Response: Not met

Request: Is it the case that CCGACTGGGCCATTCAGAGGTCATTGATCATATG has PBM binding z-score reaching or exceeding 0.05?
Response: Not met

Request: Could you verify whether the entry ATATGTAGGTAACATCCGGGTCATTCAGGCTATG shows PBM binding z-score of no less than 0.05?
Response: Met

Request: Textbook exercise: given the entry TCTGCTAGGTCAACGATGGTCAGCGAATCTGCTA , state whether its PBM binding z-score is greater than or equal to 0.05.
Response: Not met

Request: Can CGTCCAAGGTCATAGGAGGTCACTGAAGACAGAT be said to have PBM binding z-score at or above 0.05?
Response: Met

Request: Reported PBM binding z-score at or above 0.05? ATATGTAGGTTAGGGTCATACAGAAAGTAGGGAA
Response: Met

Request: Hi, just wondering whether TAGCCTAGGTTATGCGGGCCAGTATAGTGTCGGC shows PBM binding z-score of 0.05 or higher.
Response: Not met

Request: PBM binding z-score >= 0.05 for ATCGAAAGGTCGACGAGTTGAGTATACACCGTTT ?
Response: Met
